Reference source for all entries: patent US20130178413A1

Molecular target: NS3/4A protease gt 3a (Hepatitis C virus genotype 3a, UniProt Q81258)
Sequence (Q81258 1664-1717): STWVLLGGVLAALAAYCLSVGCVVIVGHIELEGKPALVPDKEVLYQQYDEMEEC
Sequence (Q81258 1033-1663): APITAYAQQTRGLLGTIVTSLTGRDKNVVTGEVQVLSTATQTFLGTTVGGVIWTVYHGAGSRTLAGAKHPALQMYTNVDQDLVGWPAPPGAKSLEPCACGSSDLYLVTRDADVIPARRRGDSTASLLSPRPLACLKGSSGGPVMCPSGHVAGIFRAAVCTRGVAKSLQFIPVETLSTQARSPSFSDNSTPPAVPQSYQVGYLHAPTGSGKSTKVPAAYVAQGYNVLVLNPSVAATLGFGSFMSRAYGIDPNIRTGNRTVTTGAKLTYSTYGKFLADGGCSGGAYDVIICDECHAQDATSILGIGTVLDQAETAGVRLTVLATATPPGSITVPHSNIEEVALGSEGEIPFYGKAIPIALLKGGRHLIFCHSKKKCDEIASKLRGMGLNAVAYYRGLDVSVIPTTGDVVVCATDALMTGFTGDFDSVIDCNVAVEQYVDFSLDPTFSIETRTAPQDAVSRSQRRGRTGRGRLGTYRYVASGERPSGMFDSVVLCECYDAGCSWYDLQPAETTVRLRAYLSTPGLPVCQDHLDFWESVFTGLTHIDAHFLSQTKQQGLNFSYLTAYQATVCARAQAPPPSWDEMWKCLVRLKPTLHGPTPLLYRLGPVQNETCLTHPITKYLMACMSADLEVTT
Experiment: HCV NS3 protease time-resolved fluorescence (TRF) assay, NS3/4A inhibitory activity (Ki), gt 3a
Details: genotype 3a NS3/4A; read-out: Enzyme Activity gt 3a Ki
pKi: −log10 of the molar value.
# class assignment by measured pKi: low bin (below 8), mid bin (8 to below 9), high bin (9 or more)

query smiles	class name
CC[C@@H]1C[C@]1(NC(=O)[C@@H]1C[C@@H]2CN1C(=O)[C@H](C1CCCC1)NC(=O)O[C@]1(C)C[C@H]1CC/C=C/Cn1c(nc3cc(C)ccc3c1=O)O2)C(=O)NS(=O)(=O)C1CC1	mid bin

Exercise: Band for the recorded pKi of C=C[C@@H]1C[C@]1(NC(=O)[C@@H]1C[C@@H]2CN1C(=O)[C@H](C1CCCC1)NC(=O)O[C@]1(C)C[C@H]1CCCCCc1nc3ccccc3nc1O2)C(=O)NS(=O)(=O)C1CC1 ?
Solution: mid bin

Exercise: Band for the recorded pKi of C=C[C@@H]1C[C@]1(NC(=O)[C@@H]1C[C@@H]2CN1C(=O)[C@H](C(C)(C)C)NC(=O)O[C@]1(C)C[C@H]1CCCCCc1nc3ccccc3nc1O2)C(=O)NS(=O)(=O)C1CC1 ?
Solution: high bin

Exercise: Band for the recorded pKi of C=C[C@@H]1C[C@]1(NC(=O)[C@@H]1C[C@@H]2CN1C(=O)[C@H](C1CCCC1)NC(=O)O[C@]1(C)CCC[C@H]1CC/C=C/Cc1c(nc3ccccc3c1OCc1ccccc1)O2)C(=O)NS(=O)(=O)C1CC1 ?
Solution: low bin

Exercise: Band for the recorded pKi of C=C[C@@H]1C[C@]1(NC(=O)[C@@H]1C[C@@H]2CN1C(=O)[C@H](C1CCCC1)NC(=O)O[C@]1(C)C[C@H]1CCCCCc1nc3cccc(OC)c3nc1O2)C(=O)NS(=O)(=O)C1CC1 ?
Solution: mid bin

Exercise: Band for the recorded pKi of C=C[C@@H]1C[C@]1(NC(=O)[C@@H]1C[C@@H]2CN1C(=O)[C@H](C(C)(C)C)NC(=O)O[C@]1(C)C[C@H]1CC/C=C/c1cccc3c1CN(C3)C(=O)O2)C(=O)NS(=O)(=O)C1CC1 ?
Solution: low bin

Exercise: Band for the recorded pKi of C=C[C@@H]1C[C@]1(NC(=O)[C@@H]1C[C@@H]2CN1C(=O)[C@H](C(C)(C)C)NC(=O)O[C@]1(C)C[C@H]1CCCCCc1nc3ccc(OC)cc3cc1O2)C(=O)NS(=O)(=O)C1CC1 ?
Solution: high bin
